The entries below are paired with their reported logP.
- protocol_description: Partition coefficient (logP)
- Assay type: physicochemical
- run_conditions: octanol/water
observed_property: logP

> print(dat)
                                   compound  value.reported
1  CCCCCCCC/C=C1/CC(CO)(COC(=O)c2ccc(-c3ccccc3)cc2)OC1=O (centres undefined)            6.12
2  O=C(Cc1ccccc1)OCC1(CO)C/C(=C/c2ccc(-c3ccccc3)cc2)C(=O)O1 (centres undefined)            4.15
3  O=C1OC(CO)(COC(=O)c2ccc(-c3ccccc3)cc2)C/C1=C/c1ccc(-c2ccccc2)cc1 (centres undefined)            5.66
4  CCCCCCCC/C=C1/CC(CO)(COC(=O)c2ccccc2)OC1=O (centres undefined)            4.36
5  CCCCCCCC/C=C1/CC(CO)(COC(=O)Cc2ccccc2)OC1=O (centres undefined)            4.61
6  O=C1OC(CO)(COC(=O)c2ccccc2)C/C1=C/c1ccc(-c2ccccc2)cc1 (centres undefined)             3.9
7  CCCCCCCCC/C=C1/CC(CO)(COC(=O)c2ccc(-c3ccccc3)cc2)OC1=O (centres undefined)            6.61
8  CCCCCCCCC/C=C1/CC(CO)(COC(=O)Cc2ccccc2)OC1=O (centres undefined)             5.1
9  CCCCCCCCC/C=C1/CC(CO)(COC(=O)c2ccccc2)OC1=O (centres undefined)            4.85
